- Tested on: NCI-H226 lung
- TEST_NAME: NCI tumour cell line growth inhibition, 48 h; in the data active = GI50 below about 0.43 µM; inactive = the rest
Tick one outcome: 1 = active, -1 = inactive

Here's what some known entries look like.
COC(=O)C1OC(O[C@H]2CCC3(C)C(CCC4(C)C3CC=C3C5CC(C)(C)CCC5(C(=O)O)CC[C@]34C)C2(C)C)C(O)C(OC2OC(CO)C(O)C(O)C2O)C1O (some centres not stated) = -1
COc1ccc(NC(=O)Nc2n[nH]c3ccccc23)cc1 = -1
COc1cc(/C=C\[N+](=O)[O-])ccc1O = -1
COc1ccc(-c2cc(-c3cc(Cl)ccc3Cl)nc3[nH]c(-c4cc(F)c(Cl)cc4Cl)cc(=O)c23)cc1 = -1
COc1cc2ncn(-c3cc(OCc4ccccc4Cl)c(C(N)=O)s3)c2cc1OC = -1

Qu. I'd appreciate the recorded outcome for N#Cc1c(NC(=O)c2cccc(C(F)(F)F)c2)sc2c1CCC(=O)C2 from this test.
Ans. -1

Qu. I'd appreciate the recorded outcome for CC(=O)c1ccc(Nc2cc(-c3ccccc3)nc3c(O)cccc23)cc1 from this test.
Ans. -1

Qu. I'd appreciate the recorded outcome for COc1cc(C(=O)NC2c3ccccc3-c3ccccc32)c(N)cc1OCc1ccccc1 from this test.
Ans. -1

Qu. I'd appreciate the recorded outcome for COc1ccc(C(=O)Nc2ncc(Cc3ccc(Cl)cc3)s2)cc1 from this test.
Ans. 1

Qu. I'd appreciate the recorded outcome for Cc1nn(-c2ccc(S(=O)(=O)[O-])cc2)c([O-])c1N=[N+](C)c1ccc(-c2ccc(N=Nc3ccc4c(S(=O)(=O)[O-])cc(S(=O)(=O)[O-])c(N)c4c3[O-])c([O-])c2)cc1[O-].[Cu+2].[Cu+2].[Na+] from this test.
Ans. -1

Qu. I'd appreciate the recorded outcome for O=C(/C=C/c1ccc(Cl)cc1)c1ccc(Cl)cc1Cl from this test.
Ans. -1

Qu. I'd appreciate the recorded outcome for CCn1c(-c2nonc2N)nc2c(C#CCN)ncc(OCCCN)c21 from this test.
Ans. -1
